src = paper PMC9482650

- Target Entity: T1, NHERF3_1, Q5T2W1
- T1 sequence (Q5T2W1 4-100, limits assumed, looked up): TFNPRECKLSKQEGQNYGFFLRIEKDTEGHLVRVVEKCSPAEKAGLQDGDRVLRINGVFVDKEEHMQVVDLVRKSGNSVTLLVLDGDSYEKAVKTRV
- Assay Procedure: holdup assay
- Set-up: key: below the threshold = too weak to quantify, mostly under pKd 3.1 to 4
- Test Context: plain residues with an end cap or a label only (N-terminal biotin on a linker: ado-ado)
Measured Endpoint: pKd

These recorded examples may help you get a feel for the data.
{"Binder": "QQGLLPHSSC [TYRO3, Q06418]", "pKd": "below the threshold"}
{"Binder": "GSQSQVETEA [FKBP4, Q02790]", "pKd": "below the threshold"}
{"Binder": "QKASRNESTF [POLR1D, P0DPB6]", "pKd": "below the threshold"}
{"Binder": "HYPASPDSWV [CTNND2, Q9UQB3]", "pKd": "below the threshold"}
{"Binder": "DYSNLRETDI [ADRA1D, P25100]", "pKd": "below the threshold"}
{"Binder": "QLGSPTADLA [SIPA1, Q96FS4]", "pKd": "below the threshold"}
{"Binder": "STYCDYTIEI [FAM71C, Q8NEG0]", "pKd": "below the threshold"}
{"Binder": "QLKSGRDSTV [TMEM178A, Q8NBL3]", "pKd": "below the threshold"}

**Query** # get_value(readout='pKd', item= FVFESRKEIL [TBPL1, P62380] )
**Result** below the threshold

**Query** Recorded pKd for KPDKQEEFYA [SDC3, O75056] , please?
**Result** below the threshold

**Query** Would you kindly share the measured pKd for NNMAFETTHF [SLC5A12, Q1EHB4] ?
**Result** 5.03

**Query** // pKd lookup, key: NKSEPFLTWL [WWTR1, Q9GZV5]
**Result** 5.05

**Query** Quick one: pKd for MQILSKPEFI [NPSR1, Q6W5P4] ?
**Result** below the threshold

**Query** Which pKd reading was recorded for the binder QRYPGNQTTC [CCL24, O00175] ?
**Result** below the threshold

**Query** I would be grateful if you could share the reported pKd for ATKDKKITTV [EXOC4, Q96A65] .
**Result** below the threshold
